// reported %Inh per item
Tested on: MST1
Construct: gene STK4
Settings: concentration: 1 μM, replicates: in singlicate; n = 1;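 also: KINOMEscan kinase panel screen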

Entry COc1cc2ncn(-c3cc(OCc4ccncc4Br)c(C(N)=O)s3)c2cc1OC ; %Inh = 0%

* * *

We begin with a simple list: items and their reported %Inh.
Tested on: CSNK1G1
Details: concentration: 1 μM, replicates: in singlicate; n = 1
Give your result as the value with the unit written after it.

Take a look at these entries with their results.
[
  {
    "molecule": "COc1cc2nccc(Nc3ccc(OCc4ccc(NC(C)=O)cc4)cc3)c2cc1OC.Cl",
    "%Inh": "0%"
  },
  {
    "molecule": "Cc1ccccc1COc1cc(-n2cnc3cc(Cl)ccc32)sc1C(N)=O",
    "%Inh": "0%"
  },
  {
    "molecule": "COc1cc(Nc2nccc(N3CCC(NC(=O)C4COc5ccccc5O4)C3)n2)cc(OC)c1OC (stereo not shown)",
    "%Inh": "3%"
  },
  {
    "molecule": "COc1cc2ncn(-c3cc(OCc4ccncc4)c(C(N)=O)s3)c2cc1OC",
    "%Inh": "0%"
  },
  {
    "molecule": "O=C(Nc1n[nH]c2nc(-c3ccccc3)c(Br)cc12)C1CC1",
    "%Inh": "10%"
  }
]

Form field, %Inh with CSNK1G1, item Nc1ncnc2c1ncn2-c1cccc2ccccc12 : 0%

Kindly note: CSNK1G1, CCC(=O)c1c(-c2ccccc2)c2cc(Cl)ccc2c(=O)n1Cc1cc(S(C)(=O)=O)n(CC(N)=O)n1 , %Inh value reported: 0%

Form field %Inh for item O=C(NCc1cccs1)c1cc(C(=O)c2c(Cl)cccc2Cl)c[nH]1 on CSNK1G1: 0%

Tested on CSNK1G1: COC(=O)c1c(-c2ccccc2)c2cc(Br)ccc2c(=O)n1Cc1ccc(NC(=O)CCC(=O)O)cc1 . Observed %Inh: 0%

CSNK1G1 assay, molecule O=c1cc(N2CCOCC2)nc2n(Cc3ccc(F)c(Cl)c3)ccn12 , recorded %Inh = 12%
